# Test system: SK-MEL-28
# assay name: Inhibition of cells growth by colorimetric assay (SRB)
# condition parameters: Homo sapiens, SK-MEL-28, 48 h, read-out: MEL-28 GI50
Reported log10(GI50) values for a set of compounds
Could you please treat all values as log10 of GI50 in nM?

A selection of reference data follows.
- compound: "CCCCCCCC(=O)Oc1c(C)c2c(c3c1[C@H]1SC[C@]4(NCCc5cc(O)c(OC)cc54)C(=O)OC[C@@H]3N3C1[C@@H]1N[C@@H](Cc4cc(C)c(OC)c(O)c41)[C@@H]3C#N)OCO2 (stereo partly drawn)"
  log10(GI50): 0.61
- compound: "COc1cc2c(cc1O)CCN[C@]21CS[C@@H]2c3c(OC(C)=O)c(C)c4c(c3[C@H](CNC1=O)N1C2[C@H]2c3c(cc(C)c(OC)c3O)C[C@@H]([C@@H]1C#N)N2C)OCO4 (stereo partly drawn)"
  log10(GI50): 2.38
- compound: "COc1cc2c(cc1O)CCN[C@]21C[S+]([O-])[C@@H]2c3c(OC(C)=O)c(C)c4c(c3[C@H](COC1=O)N1C2C2c3c(cc(C)c(OC)c3O)C[C@@H]([C@@H]1O)N2C)OCO4 (stereo partly drawn) [Et-759B]"
  log10(GI50): 1.29

Please examine the following record next.
Exercise: I have this compound here, C=CCN1[C@@H]2c3c(cc(C)c(OC)c3O)C[C@H]1[C@H](C#N)N1C2[C@@H]2SC[C@]3(NCCc4cc(OC(=O)OC(C)(C)C)c(OC)cc43)C(=O)OC[C@H]1c1c3c(c(C)c(OC(=O)CCCCCCC)c12)OCO3 (stereo partly drawn) , and I need its recorded log10(GI50).
Key: 3.50

---

# Test system: PANC-1
# assay name: Inhibition of cells growth by colorimetric assay (SRB)
# condition parameters: Homo sapiens, PANC-1, 48 h, read-out: PANC-1 LC50
measured parameter: CC50 (µM)
// units = µM; emit number, no label

- molecule: "COc1cc2c(cc1O)CCN[C@]21C[S+]([O-])[C@@H]2c3c(OC(C)=O)c(C)c4c(c3[C@H](COC1=O)N1C2C2c3c(cc(C)c(OC)c3O)C[C@@H]([C@@H]1O)N2C)OCO4 (stereo partly drawn) [Et-759B]"
  value units: "µM"
  CC50: 11
- molecule: "COc1cc2c(cc1O)CCN[C@]21CS[C@@H]2c3c(OC(=O)/C=C/c4ccccc4)c(C)c4c(c3[C@H](COC1=O)N1C2[C@@H]2N[C@@H](Cc3cc(C)c(OC)c(O)c32)[C@@H]1C#N)OCO4 (stereo partly drawn) [compound 51]"
  value units: "µM"
  CC50: 0.52

Exercise: I have this molecule here, C=CCN1[C@@H]2c3c(cc(C)c(OC)c3O)C[C@H]1[C@H](C#N)N1C2[C@@H]2SC[C@]3(NCCc4cc(O)c(OC)cc43)C(=O)OC[C@H]1c1c3c(c(C)c(OC(=O)CCCCCCC)c12)OCO3 (stereo partly drawn) [compound 50] , and I need its recorded CC50.
Key: 11.3

---

# Test system: PANC-1
# assay name: Inhibition of cells growth by colorimetric assay (SRB)
# condition parameters: Homo sapiens, PANC-1, 48 h, read-out: PANC-1 TGI
measured parameter: IC (TGI) (µM)
// units = µM; emit number, no label

Exercise: I have this molecule here, COc1c(C)cc2c(c1O)[C@H]1N[C@@H](C2)[C@H](O)N2C1[C@@H]1SC[C@]3(NCCc4c3[nH]c3ccccc43)C(=O)OC[C@H]2c2c3c(c(C)c(OC(C)=O)c21)OCO3 (stereo partly shown) [compound 63] , and I need its recorded IC (TGI).
Key: 0.0174

Exercise: I have this molecule here, C=CCN1[C@@H]2c3c(cc(C)c(OC)c3O)C[C@H]1[C@H](C#N)N1C2[C@@H]2SC[C@]3(NCCc4c3[nH]c3ccc(C)cc43)C(=O)OC[C@H]1c1c3c(c(C)c(OC(C)=O)c12)OCO3 (stereo partly shown) [compound 58] , and I need its recorded IC (TGI).
Key: 1.27

Exercise: I have this molecule here, C=CCN1[C@@H]2c3c(cc(C)c(OC)c3O)C[C@H]1[C@H](O)N1C2[C@@H]2SC[C@]3(NCCc4cc(O)c(OC)cc43)C(=O)OC[C@H]1c1c3c(c(C)c(OC(C)=O)c12)OCO3 (stereo partly shown) [compound 67] , and I need its recorded IC (TGI).
Key: 0.0927

Exercise: I have this molecule here, CCCCCCCC(=O)Oc1c(C)c2c(c3c1[C@H]1SC[C@]4(NCCc5cc(O)c(OC)cc54)C(=O)OC[C@@H]3N3C1[C@@H]1N[C@@H](Cc4cc(C)c(OC)c(O)c41)[C@@H]3C#N)OCO2 (stereo partly shown) [compound 52] , and I need its recorded IC (TGI).
Key: 0.0624

Exercise: I have this molecule here, COc1cc2c(cc1O)CCN[C@]21CS[C@@H]2c3c(OC(C)=O)c(C)c4c(c3[C@H](COC1=O)N1C[C@@H]3Cc5cc(C)c(OC)c(O)c5C(C21)N3C)OCO4 (stereo partly shown) [Et-745] , and I need its recorded IC (TGI).
Key: 9.22

Exercise: I have this molecule here, COc1c(C)cc2c(c1O)[C@H]1N[C@@H](C2)[C@H](O)N2C1[C@@H]1SCC(NC(C)=O)C(=O)OC[C@H]2c2c3c(c(C)c(OC(C)=O)c21)OCO3 (stereo partly shown) [compound 36] , and I need its recorded IC (TGI).
Key: 0.00972

Exercise: I have this molecule here, COc1cc2c(cc1O)CCN[C@]21C[S+]([O-])[C@@H]2c3c(OC(C)=O)c(C)c4c(c3[C@H](COC1=O)N1C2C2c3c(cc(C)c(OC)c3O)C[C@@H]([C@@H]1O)N2C)OCO4 (stereo partly shown) [Et-759B] , and I need its recorded IC (TGI).
Key: 0.122

Exercise: I have this molecule here, COc1cc2c(cc1O)CCN[C@]21CS[C@@H]2c3c(OC(C)=O)c(C)c4c(c3[C@H](COC1=O)N1[C@@H]2[C@H]2c3c(cc(C)c(OC)c3O)C[C@@H]([C@@H]1O)N2C)OCO4 [Et-743, ecteinascidin 743, reference compound] , and I need its recorded IC (TGI).
Key: 0.00634

Exercise: I have this molecule here, COc1c(C)cc2c(c1O)[C@H]1N[C@@H](C2)[C@H](C#N)N2C1[C@@H]1SC[C@]3(NCCc4c3[nH]c3ccc(C)cc43)C(=O)OC[C@H]2c2c3c(c(C)c(OC(C)=O)c21)OCO3 (stereo partly shown) [compound 62] , and I need its recorded IC (TGI).
Key: 0.0135

Exercise: I have this molecule here, COc1c(C)cc2c(c1O)[C@H]1N[C@@H](C2)[C@H](O)N2C1[C@@H]1SC[C@]3(NCCc4c3[nH]c3ccc(C)cc43)C(=O)OC[C@H]2c2c3c(c(C)c(OC(C)=O)c21)OCO3 (stereo partly shown) [compound 66] , and I need its recorded IC (TGI).
Key: 0.0234
